The measurements presented in this section are drawn from patent US9079895B2.

System name: UniProt P35462
Sequence (P35462 whole entry, species assumed): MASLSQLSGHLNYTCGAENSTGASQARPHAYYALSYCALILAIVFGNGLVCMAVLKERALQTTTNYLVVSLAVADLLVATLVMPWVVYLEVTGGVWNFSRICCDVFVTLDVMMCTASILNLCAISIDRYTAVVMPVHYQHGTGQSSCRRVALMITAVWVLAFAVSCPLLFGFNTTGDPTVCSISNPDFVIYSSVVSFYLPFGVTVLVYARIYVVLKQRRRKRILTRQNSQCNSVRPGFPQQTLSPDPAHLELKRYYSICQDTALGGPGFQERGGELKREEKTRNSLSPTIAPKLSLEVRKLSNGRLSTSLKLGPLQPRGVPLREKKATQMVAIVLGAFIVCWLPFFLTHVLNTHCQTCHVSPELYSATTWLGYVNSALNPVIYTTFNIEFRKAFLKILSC
Assay explanation: Secondary radioligand binding assay, D3
Design: key: “—” indicates that a binding interaction was not detected
Condition set: average of at least two experiments
Reported property: Ki D3

Compound: Cc1ccc(OC[C@@H]2CN(CCN3CCc4ccccc43)CCO2)cn1 [Compound 28s]
Ki D3: —
//
Compound: O=C(CN1CCO[C@H](COc2cccnc2)C1)N1CCc2ccccc21 [Compound 20s]
Ki D3: —
//
Compound: O=C(CN1CCO[C@@H](COc2cccc(Cl)c2)C1)N1CCc2ccccc21 [Compound 22r]
Ki D3: —
//
Compound: Cc1ccnc(C)c1OC[C@H]1CN(CCN2CCc3ccccc32)CCO1 [Compound 29r]
Ki D3: —

Form field Ki D3 for item Cc1ccnc(OC[C@H]2CN(CC(=O)N3CCc4ccccc43)CCO2)c1 [Compound 16r] on UniProt P35462: —
